- Tested on: SR leukemia
- Protocol Details: NCI-60 one-dose screen, 48 h
- Conditions Used: 10 µM unless noted
About 83,000 compounds went through this panel and 20% of them were active in at least one assay; those are over-represented in the sample as a whole. Activity calls are given as the source filed them. How the source made its calls: active means growth percent below 10; inactive means the rest.
Use one of these outcomes when replying: true for active, false for inactive

Some solved cases for reference:
CCOC(=O)C1=C(N)Oc2c(sc3c(C)cccc23)C1c1ccc(Cl)cc1 (stereo not given) = false
O=C(Nc1ccc(Br)cc1F)c1cc(Br)ccc1O = true
COc1cc2cc(Oc3ccc(NC(=O)Nc4cccc(C(F)(F)F)c4)cc3)c(C)nc2cc1OCCN1CCOCC1 = true
CC(C)OC(=O)Nc1ccc(-c2nc(-c3cccc(OCCN4CCOCC4)c3)c(-c3ccnc(Br)c3)[nH]2)cc1 = true

*Q* State the result this test recorded for O=C(COc1ccc(/C=C2\Cc3ccc(Cl)cc3C2=O)cc1)Nc1nc2ccccc2s1 .
*A* false
